Task for the reader: assign each of the following compounds its reported growth.
- System: SK-MEL-2 melanoma
- Procedure Text: NCI-60 one-dose screen, 48 h (100 = growth as untreated, 0 = no growth, -100 = all killed)
- Conditions Used: 10 µM
- Procedure: Growth inhibition of the SK-MEL-2 human tumor cell line is measured as a screen for anti-cancer activity. Cells are grown in 96 well plates and exposed to the test compound for 48 hours. Compounds are tested at a single concentration, which is 10^-5 M for most compounds. The reported endpoint is percent growth (GI% or GIPRCNT), where numbers from 0 - 100% represent growth inhibition, and numbers from -100% - 0 represent cell death. For example, a value of 40 represents 60% growth inhibition. […]
The panel holds about 83,000 compounds, 20% with a hit somewhere; the sample as a whole holds those more often.
Form entry: value (%) — number only.

Query (compound): CCN(Cc1ccccc1)c1ccc(/C=C2\COc3ccccc3C2=O)cc1 ; field requested: growth 102

Query (compound): O=C(/C=C/c1cccc(Oc2ccc(Cl)cc2)c1)c1ccccc1 ; field requested: growth 109

Query (compound): CC(=O)/C=C/c1ccc(OCc2ccc(C(C)(C)C)cc2)cc1 ; field requested: growth 91.5

Query (compound): CC(=O)/C=C/c1ccc(N(C)Cc2ccc(C(C)(C)C)cc2)cc1 ; field requested: growth 99.7

Query (compound): CC(=O)/C=C/c1ccc(N(CCO)Cc2ccc(C(C)(C)C)cc2)cc1 ; field requested: growth 93.3

Query (compound): CC(=O)/C=C/c1ccc(OCc2ccc(Cl)cc2)cc1 ; field requested: growth 101

Query (compound): COc1ccc(C(=O)/C=C/c2ccc(OCc3cccc(C(F)(F)F)c3)c(OC)c2)cc1OC ; field requested: growth 89.1
